Data credit: the NIST ThermoML archive (doi:10.1021/je0602263)

ASSAY_OVERVIEW: xn = mol fraction of the nth substance listed
SETUP_CONDITIONS: 298.15 K; 101 kPa; Liquid; x1 = 0.15
OBSERVATION_TYPE: mass density (kg/m3)

# COMPOUND, MEASURE_UNIT, NUMERIC_READOUT
records = [
    ("COC(=O)OC [dimethyl carbonate] + c1ccccc1", "kg/m3", 899.18),
    ("COC(=O)OC [dimethyl carbonate] + Cc1ccccc1", "kg/m3", 885.75),
    ("COC(=O)OC [dimethyl carbonate] + CC(C)CC(C)(C)C", "kg/m3", 716.12),
    ("COC(=O)OC [dimethyl carbonate] + CCCCCCC", "kg/m3", 711.7),
]
